- assay.info: yeast display, Sf9 membrane polyspecificity reagent, FACS + sequencing; frameworks hold sequencing errors
observation.type: polyreactivity (PSR sort gate)

Solved cases (4 shown):
polymer.sequence	polyreactivity (PSR sort gate)
QVQLVESGGGLVQAGGSLRLSCAASGYIFSGYAMGWYRQAPGKERELVAAISSNGGSTYYADSVKGRFTISRDNAKNTVNLQMNSLKPEDTAVYYCNRGLAARVGRGDYWGQGTQVTVSS	low polyreactivity
QVQLVESGGGLVLAGGSLRLSCAASGSTFGRYAMGWSRQAPGKERELVAAISRGTTTNYADSVKGRFTIARDNAKNTVYLQMNSLKPEETAVYYCAADQPSKRYYYWGQGTQVTVSS	low polyreactivity
QVHLVESGGGLVQAGGSLRLSCAASGGTFWWYTMGWYRQAPGKERELVATITRGGSTNYADSVKGRFTISRDNAKNTVYLQMNSLKPEDTAVYYCSARWYVYVHFERYYWGQGTQVTVSS	high polyreactivity
QVQLVESGGGLVQAGGSLRLSCAASGYIISYNTMGWYRPAPGKERELVASIRWGGGRTYYADSVKGRFTISRDNAKNTVYLQLNSLKPEDTAVYYCNVKSSRFLDVGRMEYWGQGTQVTVSS	high polyreactivity

Shift focus to the following entry.
QUERY: For QVQLVESGGGLVQAGGSLRLSCAASGSIFGAYMGWYRQAPGTEREFVAAINRSGSSTYYADSVKGRFTISRDNAKNTVYLQMNSLKPEDTAVYYCAAKYPGGETYPFDYWGQGTQVTVSS , what is its reported polyreactivity (PSR sort gate)?
RESULT: low polyreactivity

----------
- assay.info: yeast display, Sf9 membrane polyspecificity reagent, FACS + sequencing; frameworks hold sequencing errors
observation.type: polyreactivity (PSR sort gate)

Solved cases (4 shown):
polymer.sequence	polyreactivity (PSR sort gate)
QVQLVESGGGLVQAGGSLRLSCAASGLIFYDNMGWYRQAPGKERELVAAISSSGGSTSYADSVKGRFTISRDNAKNTVYLQMNSLKPEDTAVYYCAADSYPAYLGFVGFDYWGQGTQVNVSS	low polyreactivity
QVQLVESGVGLDQARGSLRLSCAASGITFDDYAMGWYRQAPGKERELVAAISVSGGDTYYADSVKGRFTISRDNAKNTVYLQMNSLKPEDSAVYYCAAEEVSPRWYEYWGQGTQVTVSS	low polyreactivity
QVQLVESGGGLVQAGGSLRLSCAASGFTFFVYAMGWYRQAPGKEREGVAVITSGGTTNYADSVKGRFTISRDNAKNTVYLQMNSLKPEDTAVYYCATDNGGIPKYVPYDYWGQGTQVTVSS	high polyreactivity
QVQLVESGGGLVQAGGSLRLSCAASGSIFGYYAMGWYRQAPGKERELVAAISWSGGRTYYADSVKGRFTISRDNAKNTVYLQMNSLKPEDTAVYYCNARWRSGPRAYDYWGQGTQVSVSS	high polyreactivity

For every listed record, write down its polyreactivity (PSR sort gate).
1. QVQLVESGGGLVQAGGSLRLSCAASGSTFYDYAMGWYRQAPGKERELVAAISQSGGSTYYADSVKGRFTISRDNAKNTVYLQMNSLKPEDTAVYYCAADSGYSLYDYWGQGTQVTVSS
2. QVQLVESGGGLVQAGGSLRLSCAASRIFRGYAMGWYRQAPGKERELVAAIRRGGSTNYADSVKGRFTIARDNAKNTVYLQMNSLKPEDTAVYYCNAYLYFPRYDYWGQGTQVTVSS
3. QVHLVESGGGLVQAGGSLRLILAASGYIFSSNAMGWYRQAPGKEREFVADISSTGGSTYYADSVKGRFTISRDNAKNTVYCQMNILKPEDTGVYYCAAYIRRYFHYDYWGQGTQVTGSS
4. QVQLVESGGGLVQAGGSLRLSCAASGSTFWYYAMGWYRQAPGKERELDADITYSGVSTYYADSVKGRFTISRDNAKNTVYLQMNSLKPEDTAVYYCYADWGSVNGYAGYYYWGQGTQVTVSS
5. QVQLVETGGGLVQAGGSLRLSCAASGRTYRFNAMGWYRQAPGKERELVASINSGVRTYYADSVKGRFTISRDNAKNTVYLQMNSLKPEDSAVYYCAARYRVRYYERDYWGQGTQVTVSS

RESULT:
low polyreactivity
high polyreactivity
high polyreactivity
low polyreactivity
high polyreactivity

For every listed record, write down its polyreactivity (PSR sort gate).
1. QVQLVESGGGLVQAGGSLRLSCAASGSTFGEYAMGWYRQAPGKERELVAAISWSGDTTYYADSVKGRFTISRDNAKNTVYLQMNSLKPEDTAVYYCAARDYDRVGEDYWGQGTQVTVSS
2. QVQLVESGGGLVQAGGSLRLSCAASGFTFPFYTMGWYRQAPGKERELVAAITRSGASTFYADSVKGRFTISRDNAMNTVYLQMNSLKPEDTAVYYCATQLHRYYQDDYWGQGTQVTVSS

RESULT:
["low polyreactivity", "high polyreactivity"]

For every listed record, write down its polyreactivity (PSR sort gate).
1. QVQLVESGGGLVQAGGSLRLSCAASGSIFPYYAMGWYRQAPGKERELVATITSRGGSTYYADSVKGRFTISRDNAKNTVYLQMNSLKPEDTAVYYCAKEYRYYRRRYDYWGQGTQVTVSS
2. QVQLVESGGRLVQAGGSLRLSCAASGRNFGVNAMGWYRQAPGKERELVAAISVSGDSTYYADSVKGRFTISRDNAKNTVYLQMNSLKPEDTAVYYCNAGYTFVPADLTDEYYWGQGTQVTVSS

RESULT:
1. high polyreactivity
2. low polyreactivity

For every listed record, write down its polyreactivity (PSR sort gate).
1. QVQLVESGGGLVQAGGSLRLSCAASGFIFGSYTMGGYRQAPGTERELVAVITCSGSSTYYADSVKGRFTISRDNAKNTVYLQMNSLKPADTAVYYCNAVKFGGYDYWGQGTQVTVSS
2. QGQLVESGGGLVQAGGSLRLSCAASGSTVSYNAMGCSRPARGKERALVAAISSGGRTYYADSVKGRFTISRDNAKKTVYFQMNSLKPEDTAVYYCAVYETHWGYWYELDYWGQGTQVTVSS
3. QVQIVESGGGLVQAGGSLRLSCAASGSTFVVYAMGWYRQAPGKERELVAAISYRAGITYYADSVKGRFTISRDNAKNTVYLQMNSLKPEDTAVYYCAADRYYGVGSGYWGQGTQVTVSS

RESULT:
1. high polyreactivity
2. high polyreactivity
3. high polyreactivity
